Would you kindly list survival for each of these compounds?
System: DeltatarO mutant
Assay: S. aureus survival, RN4220 and DeltatarO strains – OD600, teichoic acid synthesis inhibitors, primary screen (AID 463173)
Details: S. aureus RN4220 wild type/DeltatarO growth, OD600, 18 h, active compounds read low, screened at 18.75 µg/mL (by protocol)
Hit rate of the full screen: of about 52,000 compounds, about 4,300 (8.3%) were called active. The sample holds actives, similar compounds and a random draw of the others, so the mix is not that of the screen.

Exercise: Quick one: survival for "Cc1ccc(CNC(=O)c2c(O)nc3ccccn3c2=O)cc1" ?
Key: 89% (inactive)

Exercise: Quick one: survival for "COc1ccc(CNC(=O)c2c(O)nc3cc(C)ccn3c2=O)cc1" ?
Key: 78% (inactive)

Exercise: Quick one: survival for "O=C(Cn1c(SCCOc2ccccc2)nc2ccccc21)N1CCOCC1" ?
Key: 47% (inactive)

Exercise: Quick one: survival for "COc1cccc(OCCSc2nc3ccccc3n2CC(=O)N2CCCCC2)c1" ?
Key: 42% (active)

Exercise: Quick one: survival for "Cc1ccc(OCCSc2nc3ccccc3n2CC(=O)N2CCOCC2)c(C)c1" ?
Key: 93% (inactive)

Exercise: Quick one: survival for "COc1cccc(OCCSc2nc3ccccc3n2CC(=O)N2CCOCC2)c1" ?
Key: 44% (active)

---

Tested on: DeltatarO mutant
Experiment: S. aureus survival, RN4220 and DeltatarO strains – OD600, teichoic acid synthesis inhibitors, primary screen (AID 463173)
Conditions: S. aureus RN4220 wild type/DeltatarO growth, OD600, 18 h, active compounds read low, screened at 18.75 µg/mL (by protocol)
Screen size: about 52,000 compounds; about 4,300 (8.3%) were called active. For the sample, actives were picked, then their nearest neighbours and some compounds at random.
Would you kindly list survival for each of these compounds?
The reply should be a number in %, with the unit left off.

Exercise: Item: "COC(=O)c1ccc(Cl)cc1NC(=O)N1CCC(CN2CCCC2)CC1" Test system: DeltatarO mutant Read-out: survival Value: ?
Key: 84

Exercise: Item: "Cc1nnc(NC(=O)CSc2nccn2Cc2ccc(Cl)cc2)s1" Test system: DeltatarO mutant Read-out: survival Value: ?
Key: 112

Exercise: Item: "Nc1nc(SCC(=O)Nc2cccc(C(F)(F)F)c2)n[nH]1" Test system: DeltatarO mutant Read-out: survival Value: ?
Key: 63

Exercise: Item: "Cc1ccc(Cn2ccnc2SCC(=O)Nc2nnc(C)s2)cc1" Test system: DeltatarO mutant Read-out: survival Value: ?
Key: 55

Exercise: Item: "Cc1ccc2nc(NC(=O)CSc3nccn3-c3ccc(Cl)cc3)sc2c1" Test system: DeltatarO mutant Read-out: survival Value: ?
Key: 71

Exercise: Item: "On1ccc2c(Br)cncc21" Test system: DeltatarO mutant Read-out: survival Value: ?
Key: 94

Exercise: Item: "Cc1ccc2nc(NC(=O)CSc3nccn3Cc3ccccc3)sc2c1" Test system: DeltatarO mutant Read-out: survival Value: ?
Key: 37

Exercise: Item: "Cc1ccc(/C=C/c2onc(C)c2S(=O)(=O)N2CCC(C(=O)Nc3cc(C)ccc3C)CC2)cc1" Test system: DeltatarO mutant Read-out: survival Value: ?
Key: 78

Exercise: Item: "O=C(CSc1nccn1Cc1ccc(Cl)cc1)Nc1nc2ccccc2s1" Test system: DeltatarO mutant Read-out: survival Value: ?
Key: 32

Exercise: Item: "Cc1ccc2nc(NC(=O)CSc3nccn3Cc3ccc(F)cc3)sc2c1" Test system: DeltatarO mutant Read-out: survival Value: ?
Key: 99

Exercise: Item: "O=C(CSc1nccn1Cc1ccc(F)cc1)Nc1nc2ccccc2s1" Test system: DeltatarO mutant Read-out: survival Value: ?
Key: 83
